experimentDescription: Solubility comparison in pH 1.8 SGF and high purity water, saturated solutions determined by HPLC
Format: physicochemical
settings: simulated gastric fluid (SGF), simulated gastric fluid, thermodynamic from solid; pH 1.8 SGF, 1 h
endpointLabel: solubility at 1 h

| compound | endpointLabel | measuredValue |
| --- | --- | --- |
| CCOc1cc2ncc(C#N)c(Nc3ccc(OCc4ccccn4)c(Cl)c3)c2cc1NC(=O)/C=C/CN(C)C [Form II, reference compound] | solubility at 1 h | 3300 µg/mL |

====

experimentDescription: Solubility comparison in pH 1.8 SGF and high purity water, saturated solutions determined by HPLC
Format: physicochemical
settings: simulated gastric fluid (SGF), simulated gastric fluid, thermodynamic from solid; pH 1.8 SGF, 4 h
endpointLabel: solubility at 4 h (µg/mL)

| compound | endpointLabel | unitText | measuredValue |
| --- | --- | --- | --- |
| CCOc1cc2ncc(C#N)c(Nc3ccc(OCc4ccccn4)c(Cl)c3)c2cc1NC(=O)/C=C/CN(C)C [Form II, reference compound] | solubility at 4 h | µg/mL | 3200 |
